Numbers sourced from PubChem BioAssay.

system: Chordin-like protein 2 (CHRDL2); assay: CHRDL2 small-molecule binders, primary screen, biochemical, small-molecule microarray, 635 nm fluorescence (AID 1126); conditions: small-molecule microarray binding, fluorescence 635 nm; higher = more signal;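 note: printed compound slides probed with Chrdl2 protein at 4 µg/mL for 1 h at 4 C; score merges 667 nm emission intensity with signal to noise over three replicate slides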
Binning scheme for composite z-score: LOW (below -0.3), MID (-0.3 to below 0.6), HIGH (0.6 or more)

## Task // bin(item) where item = COc1ccc(C(O)C2C=CC3C(=O)N(C)C(=O)C3N2Nc2ccccc2)cc1 (stereo not given)
## Result MID

## Task Bin? `[N-]=[N+]=NCc1ccccc1C[C@@]1(C(=O)NCCN2CCOCC2)N=C(c2ccc(OCCCO)cc2)O[C@@H]1c1ccccc1`
## Result LOW

## Task Please classify: `O=C1O[C@H](c2ccccc2)[C@H](c2ccccc2)N2[C@H]1[C@@H](C(=O)N1CCCCCCC1)[C@]1(C(=O)Nc3ccc(C#CCCO)cc31)[C@H]2c1ccc(O)cc1`
## Result HIGH

## Task Please report the category associated with `CO[C@H]1O[C@H](CO)[C@@H](OC(=O)Nc2cccc(F)c2)[C@H](OC(=O)c2cc3ccccc3[nH]2)[C@H]1OC(=O)c1cc2ccccc2[nH]1` , nothing else.
## Result LOW

## Task Please let me know in which category the item `O=C1C[C@@](C(=O)NCC(F)(F)F)(c2ccc([N+](=O)[O-])cc2)[C@@H](c2ccc(CO)cc2I)N1CC12CC3CC(CC(C3)C1)C2` belongs.
## Result MID

## Task Which composite z-score category applies to `C=CC[C@H](O)c1ccc(O)c2ccccc12` here?
## Result HIGH

## Task Into which category would you place `COCCOC(=O)N1C(=O)[C@@]2(c3cc(C#CCC(C(=O)OC)C(=O)OC)ccc31)[C@H](C(=O)N1CCc3cc(OC)c(OC)cc3C1)[C@H]1C(=O)O[C@H](c3ccccc3)[C@H](c3ccccc3)N1[C@@H]2c1ccccc1OCCO` ?
## Result HIGH

## Task Kindly state the category for this compound: `Cc1c(NC(=O)/C(C#N)=C/C=C/c2ccc([N+](=O)[O-])cc2)c(=O)n(-c2ccccc2)n1C`
## Result MID

## Task Any idea which band `COC(=O)[C@]1(Cc2ccccc2CN=[N+]=[N-])N=C(c2ccc(OCCCO)cc2)O[C@@H]1c1ccccc1N=[N+]=[N-]` is in?
## Result HIGH

## Task Given CCCC1(C(=O)OC)C=C2C(=C(C(C)C)C(=O)C2C)CN1 (stereo not given) , name the class its composite z-score places it in.
## Result LOW

## Task Classify this compound: `CC(C)C[C@@H]1NC(=O)[C@@H]2C[C@H](C(=O)NCCCCCNC(=O)CS)[C@H](c3ccc(O)cc3)N2C1=O`
## Result HIGH

## Task Returns: class label. Input: `O=C(N1CCOCC1)[C@]1(CCS(=O)(=O)c2ccccc2)N=C(c2ccc(OCCCO)cc2)O[C@@H]1c1ccccc1`
## Result LOW

## Task Kindly state the category for this compound: `[N-]=[N+]=NCc1ccccc1[C@H]1OC(c2ccc(OCCCO)cc2)=N[C@@]1(Cc1ccccc1N=[N+]=[N-])C(N)=O`
## Result MID

## Task Lab log: CCOC(=O)C1=CCC(c2ccncc2)N(S(=O)(=O)c2ccc(C)cc2)C1 (stereo not given) — assign composite z-score category
## Result MID

## Task Record O=C1C2C=CC(C(O)c3ccccn3)N(Nc3ccc([N+](=O)[O-])cc3)C2C(=O)N1c1ccccc1 (stereo not given) — which class?
## Result LOW
